# method-notes: Acute toxicity test
# Format: in vivo, rat
# test-parameters: rat, in vivo, iv, Male SD rats; 14 days; distilled water
measured-endpoint: LD50 at 336 h (mg/kg)
The response must be a number in mg/kg with no trailing unit.

Could you share which LD50 at 336 h value was measured for CC(C)(C)c1cc(SC(P(=O)(O)O)P(=O)(O)O)cc(C(C)(C)C)c1O ?
45.2

====

# method-notes: Acute toxicity test
# Format: in vivo, rat
# test-parameters: rat, in vivo, iv, Female SD rats; 14 days; distilled water
measured-endpoint: LD50 at 336 h (mg/kg)
The response must be a number in mg/kg with no trailing unit.

Could you share which LD50 at 336 h value was measured for CC(C)(C)c1cc(SC(P(=O)(O)O)P(=O)(O)O)cc(C(C)(C)C)c1O ?
29.8
